- tested-on: JAK3 (Homo sapiens (Human), UniProt P52333)
- Sequence (P52333 whole entry): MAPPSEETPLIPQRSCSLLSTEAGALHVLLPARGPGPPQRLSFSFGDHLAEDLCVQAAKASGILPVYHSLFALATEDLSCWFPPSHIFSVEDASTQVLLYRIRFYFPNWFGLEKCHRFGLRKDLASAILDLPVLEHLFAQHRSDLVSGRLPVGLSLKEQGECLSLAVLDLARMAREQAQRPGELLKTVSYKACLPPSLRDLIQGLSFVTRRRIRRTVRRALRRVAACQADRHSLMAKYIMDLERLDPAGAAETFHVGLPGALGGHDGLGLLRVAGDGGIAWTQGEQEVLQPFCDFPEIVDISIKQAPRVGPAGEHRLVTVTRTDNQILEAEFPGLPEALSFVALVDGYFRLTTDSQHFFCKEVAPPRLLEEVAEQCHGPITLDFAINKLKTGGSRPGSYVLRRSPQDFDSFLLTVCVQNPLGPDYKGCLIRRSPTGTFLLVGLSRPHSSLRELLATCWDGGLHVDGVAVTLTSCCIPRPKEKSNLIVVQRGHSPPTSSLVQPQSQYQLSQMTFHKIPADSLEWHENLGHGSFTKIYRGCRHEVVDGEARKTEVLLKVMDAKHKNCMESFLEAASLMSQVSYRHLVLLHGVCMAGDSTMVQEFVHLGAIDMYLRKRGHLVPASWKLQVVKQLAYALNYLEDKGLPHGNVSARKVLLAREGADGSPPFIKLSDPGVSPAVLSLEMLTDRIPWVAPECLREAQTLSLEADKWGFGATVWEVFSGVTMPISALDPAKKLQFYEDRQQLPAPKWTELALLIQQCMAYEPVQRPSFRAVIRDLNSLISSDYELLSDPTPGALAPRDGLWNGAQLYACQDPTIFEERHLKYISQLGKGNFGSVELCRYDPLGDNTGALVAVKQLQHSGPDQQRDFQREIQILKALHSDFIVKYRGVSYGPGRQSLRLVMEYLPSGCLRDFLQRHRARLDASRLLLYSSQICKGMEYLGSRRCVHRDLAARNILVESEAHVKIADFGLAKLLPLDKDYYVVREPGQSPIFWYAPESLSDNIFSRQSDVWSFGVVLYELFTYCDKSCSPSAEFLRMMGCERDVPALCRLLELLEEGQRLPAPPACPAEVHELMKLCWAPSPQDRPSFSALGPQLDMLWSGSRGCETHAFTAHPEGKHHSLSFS
- protocol-summary: Enzyme assay (Assay Example^a 1), JAK3
- Type: biochemical
- condition: ATP 100 μM; Table^a 154
readout-kind: IC50

# lookup: IC50 of Fc1ccc2c(c1)CCN2C[C@H]1CC[C@H](c2nnn3cnc4[nH]ccc4c23)CC1 > 1 µM

// repeat for Cc1cc(OC(F)(F)F)ccc1NC[C@H]1CC[C@H](c2nnn3cnc4[nH]ccc4c23)CC1 and report > 1 µM

// repeat for c1ccc(CN[C@H]2CC[C@@H](c3nnn4cnc5[nH]ccc5c34)CC2)cc1 [194a] and report > 1 µM

====

- tested-on: JAK1 (Homo sapiens (Human), UniProt P23458)
- protocol-summary: Enzyme assay (Assay Example^a 1), JAK1
- Assay type: biochemical
- condition: ATP 100 μM
readout-kind: IC50 (µM)
// units = µM; emit number, no label

# lookup: IC50 of N#CC[C@H]1CC[C@@H](c2nnn3cnc4[nH]ccc4c23)CC1 [435a] 0.0054

// repeat for CNC[C@H]1CC[C@H](c2nnn3cnc4[nH]ccc4c23)CC1 [compound 329] and report 0.0048

// repeat for COCCN(CCOC)C[C@H]1CC[C@H](c2nnn3cnc4[nH]ccc4c23)CC1 [compound 326] and report 0.048

// repeat for N#CCN(C[C@H]1CC[C@H](c2nnn3cnc4[nH]ccc4c23)CC1)C(=O)CC(F)(F)F [compound 412] and report 0.0026

// repeat for O=C([C@H]1CC[C@H](c2nnn3cnc4[nH]ccc4c23)CC1)N1CC(O)C1 [compound 361] and report 0.089
